Target: SIX1-Q177R homeodomain (human, UniProt Q15475 108-198, Q177R)
Sequence: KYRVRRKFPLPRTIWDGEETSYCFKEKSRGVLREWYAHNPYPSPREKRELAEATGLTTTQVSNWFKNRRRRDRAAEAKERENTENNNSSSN
Experiment: universal protein binding microarray; Universal all-10-mer PBM (8x60K, AMADID 030236), 300 nM GST-tagged protein, Alexa Fluor 488 anti-GST; buffer, salt, pH and temperature not stated (as in Berger); high values mean tight binding
Conditions: protein: ivt; tags: N-terminal GST; dsDNA, one strand shown
Whole data set: some 33,000 sequences, median “e-score” near -0.05, cut for the highest 2% near 0.38. What follows is part of a selection rich in the highest values, with near analogues and random picks from the rest.
Quantity kind: binding signal (E-score)
Numeric answer only, unit E-score assumed.

Reference set, count: 2
Chain | Quantity kind | Measurement
GACGTGTA | binding signal | 0.368
ACCTGGAG | binding signal | 0.222

Provide measured binding signal value, entry: ATAGACAC
0.428

Look up and state reported binding signal for ACCTTACC
0.155

Supply binding signal value. Item: CTTAGGGA
0.151

Return the recorded binding signal value; entry: CTAGATAC
0.165

Name the recorded binding signal of the item CACTATAG in your answer.
0.192

====

Target: SIX1-Q177R homeodomain (human, UniProt Q15475 108-198, Q177R)
Sequence: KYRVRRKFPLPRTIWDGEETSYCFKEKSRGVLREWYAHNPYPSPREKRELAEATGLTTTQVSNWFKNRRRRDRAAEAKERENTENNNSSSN
Experiment: universal protein binding microarray; Universal all-10-mer PBM (8x60K, AMADID 030236), 300 nM GST-tagged protein, Alexa Fluor 488 anti-GST; buffer, salt, pH and temperature not stated (as in Berger); high values mean tight binding
Settings: protein: ivt; tags: N-terminal GST; dsDNA, one strand shown
In all, about 33,000 sequences were measured (“e-score”: median about -0.05, highest 2% from about 0.38 on). The list comes from a sample in which the highest values are over-represented; it also holds close analogues and randomly drawn sequences.
So basically every entry gets a class from its binding signal, ranges being lowest: < 0.2 E-score; middle: ≥ 0.2 E-score and < 0.3 E-score; highest: ≥ 0.3 E-score

Example entries begin here.
Chain | Label
AAGAGTGT | highest
CCCCCGTA | lowest
CGCTACAC | highest
ACACTGCA | highest

Band of ACACTGCT ?
highest

For the record CGTTGGTA , report the class its binding signal corresponds to.
lowest

Field: class (binding signal) — entry: CGGGTATA
middle

Consider GAAGCACC . To which binding signal class does it belong?
middle

====

Target: SIX1-Q177R homeodomain (human, UniProt Q15475 108-198, Q177R)
Sequence: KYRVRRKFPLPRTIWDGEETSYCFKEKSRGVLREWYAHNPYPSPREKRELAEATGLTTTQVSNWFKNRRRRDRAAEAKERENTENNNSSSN
Assay: universal protein binding microarray; Universal all-10-mer PBM (8x60K, AMADID 030236), 300 nM GST-tagged protein, Alexa Fluor 488 anti-GST; buffer, salt, pH and temperature not stated (as in Berger); high values mean tight binding
Conditions: protein: ivt; tags: N-terminal GST; dsDNA, one strand shown
Whole data set: some 33,000 sequences, median “e-score” near -0.05, cut for the highest 2% near 0.38. The list comes from a sample in which the highest values are over-represented; it also holds close analogues and randomly drawn sequences.
As shown below, each of these sequences has a reported binding signal value.
Express the result in E-score but write the number alone.

State its binding signal for this sequence: CGCGCACC
0.193

Name the recorded binding signal of the sequence listed here: CCCCCGAA
0.238

In one line, give reported binding signal of the entry AAACCCCC .
0.24

Given TCATAACA , respond with its binding signal.
0.23

Give reported binding signal value for CGGATAAC
0.213

Supply reported binding signal belonging to this sequence: CTCCACAC
0.251

Name the recorded binding signal of the item CTCGACCC in your answer.
0.182

Note binding signal for the sequence shown: GTCTCATA
0.179

Hello, please tell me recorded binding signal for this one: CCCTCTAC
0.205

Give me measured binding signal, please, for this sequence: GTCGAAAC
0.182

Report binding signal, nothing else, for this sequence: CTCTACAC
0.391

Please supply the value of reported binding signal for the item ACTTAATG
0.219

# return recorded binding signal for entry ATCGACTC
0.201

State, in one line, measured binding signal of ATCCACAC
0.297

Identify measured binding signal corresponding to CGGATCAG
0.174

====

Molecular target: SIX1-Q177R homeodomain (human, UniProt Q15475 108-198, Q177R)
Sequence: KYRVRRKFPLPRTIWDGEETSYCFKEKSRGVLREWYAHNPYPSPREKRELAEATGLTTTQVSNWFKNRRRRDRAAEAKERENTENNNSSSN
Test: universal protein binding microarray; Universal all-10-mer PBM (8x60K, AMADID 030236), 300 nM GST-tagged protein, Alexa Fluor 488 anti-GST; buffer, salt, pH and temperature not stated (as in Berger); high values mean tight binding
Settings: protein: ivt; tags: N-terminal GST; dsDNA, one strand shown
Over roughly 33,000 sequences, “e-score” has its median near -0.05; the highest 2% begin near 0.38. For the sample, the highest values were picked, then their nearest neighbours and some sequences at random.
Documented binding signal across a set of sequences
Write down the numeric answer in E-score and omit the unit.

Answered examples (2):
Chain | Quantity kind | Value units | Measurement
GATCCCTA | binding signal | E-score | 0.24
ACCTTACA | binding signal | E-score | 0.192

Query binding signal for ACACTCGC
0.385

Give the measured binding signal for CACCTGTA
0.232

# return recorded binding signal for input ACTCGGAC
0.179

====

Measured binding signal by item
Molecular target: SIX1-Q177R homeodomain (human, UniProt Q15475 108-198, Q177R)
Sequence: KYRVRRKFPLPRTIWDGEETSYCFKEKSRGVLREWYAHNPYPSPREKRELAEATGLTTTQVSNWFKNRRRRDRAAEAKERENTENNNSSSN
Assay: universal protein binding microarray; Universal all-10-mer PBM (8x60K, AMADID 030236), 300 nM GST-tagged protein, Alexa Fluor 488 anti-GST; buffer, salt, pH and temperature not stated (as in Berger); high values mean tight binding
Settings: protein: ivt; tags: N-terminal GST; dsDNA, one strand shown
The full ranking holds about 33,000 sequences; the median of “e-score” is about -0.05, and the highest 2% start at about 0.38. The list comes from a sample in which the highest values are over-represented; it also holds close analogues and randomly drawn sequences.
Report the figure in E-score without appending any unit label.

Some solved entries appear below for comparison.
Chain | Measurement
CGTGTACA | 0.427
GGTGCTAC | 0.183
CCCGCGCA | 0.176
GTCGGATA | 0.292
AGTGTGCC | 0.159

Consider the sequence CTTGTACA and give its recorded binding signal.
0.154

Dear colleague, please send me the reported binding signal for GACACGGC when you can.
0.427

====

Target: SIX1-Q177R homeodomain (human, UniProt Q15475 108-198, Q177R)
Sequence: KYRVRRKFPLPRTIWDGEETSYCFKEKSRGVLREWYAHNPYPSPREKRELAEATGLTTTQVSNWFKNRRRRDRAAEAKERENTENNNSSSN
Test: universal protein binding microarray; Universal all-10-mer PBM (8x60K, AMADID 030236), 300 nM GST-tagged protein, Alexa Fluor 488 anti-GST; buffer, salt, pH and temperature not stated (as in Berger); high values mean tight binding
Details: protein: ivt; tags: N-terminal GST; dsDNA, one strand shown
Whole data set: some 33,000 sequences, median “e-score” near -0.05, cut for the highest 2% near 0.38. Shown is part of a subset that was picked to be rich in the highest values.
Quantity kind: binding signal (E-score)
Just the number please, in E-score, no unit attached.

Example entries begin here.
Chain | binding signal [E-score]
AAACCACA | 0.216
GTGGGGTA | 0.278
CGATCACG | 0.173
CAGAGGGG | 0.193
CGTGTTAC | 0.408
CTACCACA | 0.154
CGTGTTGC | 0.333
ACCAGATA | 0.162
AGTGTTGA | 0.318
CCGCGAAA | 0.167

Please turn your attention to the following entry.
# assay system SIX1-Q177R homeodomain (human, UniProt Q15475 108-198, Q177R): give binding signal of CGTGTTCA
0.409

====

# Lookup of reported binding signal keyed by entry
Molecular target: SIX1-Q177R homeodomain (human, UniProt Q15475 108-198, Q177R)
Sequence: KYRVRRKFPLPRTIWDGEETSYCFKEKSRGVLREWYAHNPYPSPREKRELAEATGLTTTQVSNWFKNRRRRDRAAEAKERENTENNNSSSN
Test: universal protein binding microarray; Universal all-10-mer PBM (8x60K, AMADID 030236), 300 nM GST-tagged protein, Alexa Fluor 488 anti-GST; buffer, salt, pH and temperature not stated (as in Berger); high values mean tight binding
Conditions: protein: ivt; tags: N-terminal GST; dsDNA, one strand shown
Over roughly 33,000 sequences, “e-score” has its median near -0.05; the highest 2% begin near 0.38. The full list was thinned out, with the highest values kept by preference.
Answer format: numeric, E-score implied, no suffix.

Known binding signal results, listed for orientation:
Chain | binding signal [E-score]
CACCCCTG | 0.351
CACCCTAC | 0.387
AGGCTACC | 0.187
AGGGGTAG | 0.269
CCGAGCAC | 0.178

For the next question, use this sequence.
Lab note: record binding signal of TACGTACA tested on SIX1-Q177R homeodomain (human, UniProt Q15475 108-198, Q177R).
0.18
